Biological target: B1 receptor of bradykinin (Homo sapiens)
Construct: To induce expression of the B1 receptor of bradykinin, the vein segments are allowed to incubate at 37° C; from tissue; host or cells: human umbilical vein rings, endothelium removed, incubated 16 h in EMEM to induce the receptor
Sequence (P46663 1-353): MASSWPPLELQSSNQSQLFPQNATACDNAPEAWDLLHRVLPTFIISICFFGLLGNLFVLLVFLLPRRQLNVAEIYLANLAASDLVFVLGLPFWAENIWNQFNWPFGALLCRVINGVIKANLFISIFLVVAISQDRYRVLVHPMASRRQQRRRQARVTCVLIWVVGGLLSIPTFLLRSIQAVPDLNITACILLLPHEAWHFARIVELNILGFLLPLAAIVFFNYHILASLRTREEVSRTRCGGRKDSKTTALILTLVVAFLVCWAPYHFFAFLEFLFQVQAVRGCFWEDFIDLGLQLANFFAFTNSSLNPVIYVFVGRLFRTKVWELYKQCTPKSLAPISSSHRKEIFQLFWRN
Test: human umbilical vein contraction by des-Arg10-Kallidin, antagonism at the B1 receptor of bradykinin
Format: cell-based
Details: isolated human umbilical vein rings, agonist des-Arg10-Kallidin, pKB=-log KB from EC50 concentration ratio
Counter-ions that a name gives are not always drawn.
quantity.kind: Kb (nM)
Response body: numeric value in nM, unit text excluded.

Past entries and their recorded results:
COc1cc(C)c(S(=O)(=O)N(C)CCOCC(=O)N2CCC(N3CCCN(C)CC3)CC2)c(C)c1 [Example 89, fumarate] : 7.94
CCN(CCOCC(=O)N1CCN(C2CCN(C)CC2)CC1)S(=O)(=O)c1c(C)cc(OC)cc1C [Example 21, difumarate] : 15.8
CCN1C2CCC1CC(N1CCN(C(=O)COCCN(C)S(=O)(=O)c3c(C)cc(OC)cc3C)CC1)C2 (stereo not shown) [Example 46, difumarate] : 2.51

Then there is this compound:
# lookup: Kb of COc1cc(C)c(S(=O)(=O)N(C)CCOCC(=O)N2CCC(CCN3CCCC3)CC2)c(C)c1 [Example 76, fumarate]
10
